- system: PTHR-delNt (human) (UniProt Q03431)
- Sequence (Q03431 185-593, form in doubt): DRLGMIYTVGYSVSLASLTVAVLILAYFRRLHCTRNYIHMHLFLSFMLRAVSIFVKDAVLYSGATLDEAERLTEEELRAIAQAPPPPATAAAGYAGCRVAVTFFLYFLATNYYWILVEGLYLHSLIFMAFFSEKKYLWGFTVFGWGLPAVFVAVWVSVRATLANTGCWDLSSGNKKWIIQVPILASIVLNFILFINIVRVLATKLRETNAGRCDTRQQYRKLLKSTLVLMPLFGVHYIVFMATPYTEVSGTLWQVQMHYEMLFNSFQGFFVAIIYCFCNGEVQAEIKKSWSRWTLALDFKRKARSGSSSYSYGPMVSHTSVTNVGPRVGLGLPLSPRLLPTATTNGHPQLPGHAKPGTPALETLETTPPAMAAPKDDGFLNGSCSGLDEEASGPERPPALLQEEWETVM
- procedure_summary: competition binding, COS-7 membranes, 125I-[Aib1,3,M]PTH(1-15) tracer
Where no end group is shown, it is not given here.
Consider the following binders; for each one, report its IC50.
Write it as a number; the unit nM goes unstated.

Requested field: IC50. Item: SVSEIQLMHNLGKHLNSMERVEWLRKKLQDA-NH2 [PTH(1-31)NH2 Val^31→Ala] 4910

Look up IC50 for this binder: AVSEIQLMHNLGKHLNSMRRVEWLRKKEQDV-NH2 [[Ala^1,Arg^19]hPTH(1-31)NH2 Leu^28→Glu] 974

Suppose we examine the binder SVSEIQLMHNLGKHLNSMERVEWLRKKLQDV-NH2 (also called hPTH(1-31)NH2; parental PTH(1-31)NH2 peptide) [human PTH(1-31)NH2] ; what IC50 value has been reported? 3670

Name the recorded IC50 for AVSEIQLMHNLGKHLNSMREVEWLRKKLQDV-NH2 [[Ala^1,Arg^19]hPTH(1-31)NH2 Arg^20→Glu] . 776
